The entries below come with measured relative viability values attached.
# System: NCI-H1650
# assayNotes: relative viability (nuclei count vs DMSO), 5 days (fraction); higher = more cells survive
# appliedConditions: first compound 4 µM
Lab note: jot the number down without any unit.

| molecule | relative viability |
| --- | --- |
| C[C@@H]1CN(CC(=O)Nc2ccc3c(c2)Cc2cccc(-c4cc(=O)cc(N5CCOCC5)o4)c2S3)C[C@H](C)O1 + COc1cccc2cc(-c3nc([C@H]4CC[C@H](C(=O)O)CC4)n4ncnc(N)c34)[nH]c12 [OSI-027] (partner 0.5 µM) | 0.449 |
| C[C@@H]1CN(CC(=O)Nc2ccc3c(c2)Cc2cccc(-c4cc(=O)cc(N5CCOCC5)o4)c2S3)C[C@H](C)O1 + Cc1nc(Nc2ncc(C(=O)Nc3c(C)cccc3Cl)s2)cc(N2CCN(CCO)CC2)n1 [Dasatinib] (partner 0.075 µM) | 0.244 |
| C[C@@H]1CN(CC(=O)Nc2ccc3c(c2)Cc2cccc(-c4cc(=O)cc(N5CCOCC5)o4)c2S3)C[C@H](C)O1 + Nc1nc2[nH]cc(CCc3ccc(C(=O)N[C@@H](CCC(=O)O)C(=O)O)cc3)c2c(=O)[nH]1 [Pemetrexed] (partner 0.2 µM) | 0.329 |

// below: relative viability requested for another molecule
Which relative viability value is on record for Clc1ccc(Nc2nnc(Cc3ccncc3)c3ccccc23)cc1 [Vatalanib] + CC1(C)CCC(c2ccc(Cl)cc2)=C(CN2CCN(c3ccc(C(=O)NS(=O)(=O)c4ccc(N[C@H](CCN5CCOCC5)CSc5ccccc5)c(S(=O)(=O)C(F)(F)F)c4)cc3)CC2)C1 [Navitoclax] (partner 0.5 µM) ?
1.17

---

# Tested on: COR-L 105
# assayNotes: relative viability (nuclei count vs DMSO), 5 days (fraction); higher = more cells survive
# appliedConditions: first compound 0.04 µM
# reported relative viability; entries follow
// no unit, no text: just the number

Known results for compounds:
| compound | readoutNumber |
| --- | --- |
| COc1cc(N2CCC(C(N)=O)CC2)ccc1Nc1nc(N)c(Cl)c(Nc2ccccc2S(=O)(=O)C(C)C)n1 [HG-5-88-01] + CC(=O)c1c(C)c2cnc(Nc3ccc(N4CCNCC4)cn3)nc2n(C2CCCC2)c1=O [Palbociclib] (partner 0.5 µM) | 0.398 |
| C[C@@H]1CN(CC(=O)Nc2ccc3c(c2)Cc2cccc(-c4cc(=O)cc(N5CCOCC5)o4)c2S3)C[C@H](C)O1 + O=C(CCCCCCC(=O)Nc1ccccc1)NO [Vorinostat] (partner 1 µM) | 0.799 |
| COc1cc(N2CCC(C(N)=O)CC2)ccc1Nc1nc(N)c(Cl)c(Nc2ccccc2S(=O)(=O)C(C)C)n1 [HG-5-88-01] + Nc1ncn([C@H]2C[C@H](O)[C@@H](CO)O2)c(=O)n1 [Decitabine] (partner 2 µM) | 0.569 |

// next item, relative viability requested
Which value of relative viability has been reported for Clc1ccc(Nc2nnc(Cc3ccncc3)c3ccccc23)cc1 [Vatalanib] + Cc1nc(NC(=O)N2CCC[C@H]2C(N)=O)sc1-c1ccnc(C(C)(C)C(F)(F)F)c1 [Alpelisib] (partner 2 µM) in the records?
0.994

---

# Tested on: NCI-H727
# assayNotes: relative viability (nuclei count vs DMSO), 5 days (fraction); higher = more cells survive
# appliedConditions: first compound 0.4 µM
recordedMetric: relative viability

Below: 2 compounds and their reported relative viability.
| compound | relative viability |
| --- | --- |
| C[C@@H]1CN(CC(=O)Nc2ccc3c(c2)Cc2cccc(-c4cc(=O)cc(N5CCOCC5)o4)c2S3)C[C@H](C)O1 + Nc1ncn([C@H]2C[C@H](O)[C@@H](CO)O2)c(=O)n1 [Decitabine] (partner 2 µM) | 0.99 |
| COc1cc(N2CCC(C(N)=O)CC2)ccc1Nc1nc(N)c(Cl)c(Nc2ccccc2S(=O)(=O)C(C)C)n1 [HG-5-88-01] + Cc1nc(Nc2ncc(C(=O)Nc3c(C)cccc3Cl)s2)cc(N2CCN(CCO)CC2)n1 [Dasatinib] (partner 0.075 µM) | 0.282 |

// next item, relative viability requested
So what does the record say about relative viability for Clc1ccc(Nc2nnc(Cc3ccncc3)c3ccccc23)cc1 [Vatalanib] + O=C(CCCCCCC(=O)Nc1ccccc1)NO [Vorinostat] (partner 1 µM) ?
1.17
